System: BT-549 breast
RUN_DESCRIPTION: NCI-60 one-dose screen, 48 h (100 = growth as untreated, 0 = no growth, -100 = all killed)
TEST_PARAMETERS: 10 µM unless noted
Compounds without any hit were thinned out: in the full panel of roughly 83,000, 20% have a hit.
RECORDED_METRIC: growth (%)
Report the figure in % without appending any unit label.

Solved entries:
CCOC(=O)c1sc(N)c(C(=O)OCC)c1C = 59.9
CN(C)CCCNc1c2ccc(Cl)cc2nc2c1oc1ccc(Cl)cc12 = 79.9
COC(=O)C(Cc1ccccc1)NS(=O)(=O)/N=C1\NC(=O)NC1=C(Cl)Cl (stereo unspecified) = 95.6
CCOc1ccc2nc(NC(=O)c3ccc(C(F)(F)F)cc3)sc2c1 = 98.5
C#Cc1nc(C2=C(C)C(OC(C)=O)/C(=N/OC(C)=O)C2)cs1 (stereo unspecified) = -74.3

Exam item: GET growth | system: BT-549 breast | item: Nc1cc(-c2c[nH]c3ccccc23)nc2cc(-c3c[nH]c4ccccc34)nn12
Marked response: 84.4

###

Test system: HT29 colon
RUN_DESCRIPTION: NCI-60 one-dose screen, 48 h (100 = growth as untreated, 0 = no growth, -100 = all killed)
TEST_PARAMETERS: 10 µM unless noted
Procedure: Growth inhibition of the HT29 human tumor cell line is measured as a screen for anti-cancer activity. Cells are grown in 96 well plates and exposed to the test compound for 48 hours. Compounds are tested at a single concentration, which is 10^-5 M for most compounds. The reported endpoint is percent growth (GI% or GIPRCNT), where numbers from 0 - 100% represent growth inhibition, and numbers from -100% - 0 represent cell death. For example, a value of 40 represents 60% growth inhibition. […]
About 83,000 compounds went through this panel and 20% of them were active in at least one assay; those are over-represented in the sample as a whole.
The reader will find reported growth values listed item by item below.
Kindly provide the numeric value in % only, without the unit symbol.

Solved entries:
COc1ccc(/C=C/C(=O)c2ccc(NC(=O)CSc3nnc(-c4ccc5nc(-c6ccc(Cl)cc6)[nH]c5c4)o3)cc2)cc1 = 106
COc1cc2nc(-c3ccc(C(F)(F)F)cc3)cc(OCCCNCC3CCCO3)c2cc1OC (stereo not drawn) = -7.81
COc1cc(/C=C/C(=O)c2ccc(F)cc2)ccc1Oc1nc(NCCO)nc(N2CCOCC2)n1 = 53.5
CCOC(=O)c1c(Nc2ccccc2)nn2c(N)c(C#N)c(-c3ccc(OC)cc3)nc12 = 76.7
C/C(=N/NC(N)=S)c1ccc(Nc2nc(SCC(C)C)nc(-c3ccc(F)cc3)c2C#N)cc1 = 15

Exam item: Provide measured growth value, entry: N#Cc1c(-c2ccc(Cl)cc2)nc(SCc2ccc([N+](=O)[O-])cc2)nc1N1CCNCC1
Marked response: -71.9

Exam item: Give the value of growth reported for the following: O=C(N/N=C/c1ccc(Br)s1)c1[nH]c2ccc(Br)cc2c1-c1ccccc1
Marked response: 5.61

Exam item: Return growth (reported value) for this molecule: Clc1ccc2oc3c(OCCCn4ccnc4)c4ccccc4nc3c2c1
Marked response: 36.7

Exam item: Give growth for the following molecule: CCN1CCN(S(=O)(=O)c2oc(-c3ccc(Cl)cc3)nc2C#N)CC1
Marked response: 2.82

Exam item: Please give the documented growth of COc1ccc(-c2nc3ccc(-c4nnc(SCC(=O)Nc5ccc(C(=O)/C=C/c6ccc(Cl)cc6)cc5)o4)cc3[nH]2)cc1OC
Marked response: 108

###

Tested on: NCI/ADR-RES ovarian
RUN_DESCRIPTION: NCI-60 one-dose screen, 48 h
TEST_PARAMETERS: 10 µM unless noted
Compounds without any hit were thinned out: in the full panel of roughly 83,000, 20% have a hit. The source made the active and inactive calls. Rule for the calls: active = growth percent below 10; inactive = the rest.
Respond only with the outcome that fits, drawn from active, inactive

C#Cc1nc(C2=C(C)C(=O)/C(=N/OC(C)=O)C2)cs1 = active
C#Cc1nc(C2=C(C)C(O)/C(=N/O)C2)cs1 (stereo unspecified) = active
N[C@@H](Cc1cn(-c2c3ccccc3nc3ccccc23)nn1)C(=O)O = inactive
Cc1cccc2sc(/N=C(\N)C(Cl)(Cl)Cl)nc12 = inactive

Exam item: Tell me the assay call for N#Cc1nc(-c2ccccc2)oc1N1CC[C@@H](CO)C1 please.
Marked response: inactive

Exam item: How did this test come out for CN1C(=S)N(C)C2C1NN=C1SC(c3ccccc3)=CC(=O)N12 (stereo unspecified) ?
Marked response: inactive

Exam item: I'd appreciate the recorded outcome for Cn1cc(-c2cc(N)n3nc(-c4cn(C)c5ccc(Cl)cc45)cc3n2)c2cc(Cl)ccc21 from this test.
Marked response: inactive

Exam item: Hi, do you know how O=c1/c(=C\c2ccc(-c3ccccc3)o2)sc2nc(-c3ccccc3)nn12 came out in this test?
Marked response: inactive

Exam item: Dear colleague, could you share the recorded outcome for CC(C)(C)Nc1nc2c(OCCc3ccccc3)cccn2c1-c1ccccc1Cl when you have a moment?
Marked response: active

Exam item: Name the outcome recorded for Cc1ccc(/C=C/c2nn3c(-c4ccco4)nnc3s2)cc1C in the assay.
Marked response: inactive

Exam item: Just curious, what result did COc1ccc(-c2nn3c(-c4ccccc4F)nnc3s2)cc1 get here?
Marked response: inactive

###

Test system: OVCAR-4 ovarian
RUN_DESCRIPTION: NCI-60 one-dose screen, 48 h (100 = growth as untreated, 0 = no growth, -100 = all killed)
TEST_PARAMETERS: 10 µM unless noted
This is part of a sample that, as a whole, favours compounds with a hit. Of some 83,000 tested, about 20% had one in any assay.
Assign a class from recorded growth; defined classes: low band: < 50%; middle band: ≥ 50% and < 90%; high band: ≥ 90%

Cc1sc2nc(NCc3ccccc3Cl)[nH]c(=O)c2c1C = high band
CC(=NNc1ncnc2ccccc12)c1ccc(S(C)(=O)=O)cc1 = high band
COc1cc(N=Cc2sc(Nc3nccs3)nc2O)cc(OC)c1OC = middle band
CN1CCN(Cc2ccc(NC(=O)c3cncc(C#Cc4cnc5ccc(N6CCSCC6)nn45)c3)cc2C(F)(F)F)CC1 = low band
NS(=O)(=O)c1ccc(Nc2nc(Nc3ccccc3)nc(-n3nc(-c4ccccc4)cc3-c3ccccc3)n2)cc1 = low band

Could you now look at the following molecule, please?
Exam item: Assign a category based on measured growth for COc1cccc(-c2nn(-c3ccccc3)cc2-c2ccnc(N3CCN(C(=O)c4ccccc4)CC3)c2)c1 and give only the class name.
Marked response: middle band

###

Recorded growth by entry
System: PC-3 prostate
RUN_DESCRIPTION: NCI-60 one-dose screen, 48 h (100 = growth as untreated, 0 = no growth, -100 = all killed)
TEST_PARAMETERS: 10 µM unless noted
About 83,000 compounds went through this panel and 20% of them were active in at least one assay; those are over-represented in the sample as a whole.
Answer format: numeric, % implied, no suffix.

Please review the entries below; each comes with its answer.
COc1cccc(-c2nn(-c3ccccc3)cc2-c2ccnc(N3CCN(C(=O)Nc4ccc(F)cc4)CC3)c2)c1 = 44.3
Oc1c(Cl)cc(Cl)c2ccc(CN3CCCCC3)nc12 = 56.8

Switching to the query record.
Exam item: Give the reported growth for this compound. COc1ccc(/C=N/NC(=O)c2[nH]c3ccc(Br)cc3c2-c2ccccc2)s1
Marked response: 30.9

###

System: SK-MEL-28 melanoma
RUN_DESCRIPTION: NCI-60 one-dose screen, 48 h (100 = growth as untreated, 0 = no growth, -100 = all killed)
TEST_PARAMETERS: 10 µM unless noted
About 83,000 compounds went through this panel and 20% of them were active in at least one assay; those are over-represented in the sample as a whole. Calls of active or inactive are those of the source. The calls were made as follows: active = growth percent below 10; inactive = the rest.
RECORDED_METRIC: growth

Some solved cases for reference:
O=C1Nc2cc(Cl)ccc2/C1=C\c1ccc(OCc2ccc(Br)cc2F)cc1 = -63% (active)
COc1ccc(-c2cc(C(=O)N=Nc3c(O)[nH]c4ccccc34)c3ccccc3n2)cc1OC = 98.1% (inactive)
CCCSc1nc(Nc2ccc(/C(C)=N\NC(N)=S)cc2)c(C#N)c(-c2ccc(OC)cc2)n1 = 79.8% (inactive)
COc1ccc(NC2=CC(=O)C(C)=C(C)C2=O)cc1 = 99.4% (inactive)
Clc1ccc2oc3c(NCCCn4ccnc4)c4ccccc4nc3c2c1 = 59% (inactive)

Exam item: System SK-MEL-28 melanoma. Read-out growth. Item COc1cc2nc(-c3ccc(C(F)(F)F)cc3)cc(OCCCNCC3CCCO3)c2cc1OC (stereo not drawn) . Report value.
Marked response: -26.8% (active)

Exam item: Write down measured growth (SK-MEL-28 melanoma) for this compound. C#Cc1nc(C2=C(C)C(O)CC2)cs1 (stereo not drawn)
Marked response: 105% (inactive)

Exam item: Would you please give the reported growth of Nc1c(C(=O)Nc2ccc(Cl)cc2)sc2nc(-c3cnccn3)cc(-c3cccs3)c12 with SK-MEL-28 melanoma?
Marked response: 64.8% (inactive)

Exam item: Identify measured growth obtained with SK-MEL-28 melanoma for COc1ccc([C@@H]2c3[nH]c4ccccc4c3CC3C(=O)N(C4CCN(Cc5c(F)cccc5F)CC4)CC(=O)N32)c(OC)c1 (stereo partly drawn) .
Marked response: 60.9% [5.26 µM] (inactive)
